System: SK-OV-3 ovarian
Method description: NCI-60 one-dose screen, 48 h (100 = growth as untreated, 0 = no growth, -100 = all killed)
Settings: 10 µM
This is part of a sample that, as a whole, favours compounds with a hit. Of some 83,000 tested, about 20% had one in any assay.

>  <Compound>
CN(C)C(=S)N/N=C\C=N/NC(=S)N(C)C

>  <Assayed system>
SK-OV-3 ovarian

>  <growth (%)>
49.9

$$$$
>  <Compound>
CCOC(=O)N1C=CC2C=CC1C1C=CC=CC2N1C(=O)OCC (stereo unspecified)

>  <Assayed system>
SK-OV-3 ovarian

>  <growth (%)>
97

$$$$
>  <Compound>
CC(=O)c1nc2ccccc2n1CCN1CCN(C)CC1

>  <Assayed system>
SK-OV-3 ovarian

>  <growth (%)>
27.4

$$$$
>  <Compound>
Clc1ccc(Sc2nc(NC3CC3)nc(Sc3ccc(Cl)cc3)n2)cc1

>  <Assayed system>
SK-OV-3 ovarian

>  <growth (%)>
72.8

$$$$
>  <Compound>
O=C(Nc1cccc(Cl)c1)Nc1nccs1

>  <Assayed system>
SK-OV-3 ovarian

>  <growth (%)>
100

$$$$
>  <Compound>
O=C1/C(=C/c2ccc(Cl)cc2)SC(=Nc2ccc(Cl)cc2)N1Cc1nc2ccccc2[nH]1

>  <Assayed system>
SK-OV-3 ovarian

>  <growth (%)>
97.6

$$$$
>  <Compound>
O=C(Nc1ccc(Cl)c([N+](=O)[O-])c1)Nc1nc2ccccc2s1

>  <Assayed system>
SK-OV-3 ovarian

>  <growth (%)>
84.9

$$$$
>  <Compound>
N#CCCN1C/C(=C/c2ccccc2)C(=O)/C(=C/c2ccccc2)C1

>  <Assayed system>
SK-OV-3 ovarian

>  <growth (%)>
67.8

$$$$
>  <Compound>
COc1cc(-c2nnc(-c3c(-c4ccc(F)cc4)nc4ccccn34)o2)cc(OC)c1OC

>  <Assayed system>
SK-OV-3 ovarian

>  <growth (%)>
76

$$$$
>  <Compound>
N=C1c2nc3n(c2C(=O)c2nc4n(c21)CCCC4)CCCC3

>  <Assayed system>
SK-OV-3 ovarian

>  <growth (%)>
95

$$$$
>  <Compound>
CC/C(=N\N=C(/CC)c1ccc(Br)cc1)c1ccc(Br)cc1

>  <Assayed system>
SK-OV-3 ovarian

>  <growth (%)>
100

$$$$

----------
Tested on: A498 renal
Method description: NCI-60 one-dose screen, 48 h
Settings: 10 µM
About 83,000 compounds went through this panel and 20% of them were active in at least one assay; those are over-represented in the sample as a whole. Calls of active or inactive are those of the source. Rule for the calls: active = growth percent below 10; inactive = the rest.
Outcomes: YES (active), NO (inactive)

>  <Compound>
CSC1=NCCCC1

>  <Category label>
NO

$$$$
>  <Compound>
CCOCCOCCOCCOCCOCCOCCOCCOCCOCCO (tested in a mixture with another compound)

>  <Category label>
NO

$$$$
>  <Compound>
COc1ccc(Nc2nc3ccc(NC(=O)NC4CCCCC4)cc3[nH]c2=O)cc1

>  <Category label>
NO

$$$$
>  <Compound>
c1ccc(CO[C@H]2CO[C@H]3[C@@H]2OC[C@H]3OCc2ccccc2)cc1

>  <Category label>
NO

$$$$
>  <Compound>
NC1(C(=O)O)CSSC1

>  <Category label>
NO

$$$$
>  <Compound>
COc1ccc2c(c1)N(CCO)C1=C(C(=O)OC1)C2c1cc(OC)c(OC)c(OC)c1 (stereo not given)

>  <Category label>
YES

$$$$
>  <Compound>
CN(C)CC(O)c1ccc2cc(Br)c3ccccc3c2c1 (stereo not given)

>  <Category label>
NO

$$$$
>  <Compound>
COc1cc(-c2cc(-c3cc4c([nH]c5ccccc54)c(-c4cc(OC)c(OC)c(OC)c4)n3)cc(-c3ccccc3)n2)cc(OC)c1OC

>  <Category label>
NO

$$$$
>  <Compound>
Cc1ccc(C)c(C(O)(c2cc(C)ccc2C)C2(O)CCCCC2)c1

>  <Category label>
NO

$$$$
>  <Compound>
CS(=O)(=O)Nc1ccc(Nc2c3ccccc3nc3cc(N)ccc23)cc1

>  <Category label>
NO

$$$$
>  <Compound>
COc1ccc2c(c1)sc1nc(-c3ccccc3)c(-c3ccc(O)c(OC)c3)n12

>  <Category label>
NO

$$$$
>  <Compound>
COc1cc(Cl)cc(-c2nn(-c3cccc(NC(=O)Nc4ccc(Cl)c(C(F)(F)F)c4)c3)cc2-c2ccncc2)c1

>  <Category label>
YES

$$$$
>  <Compound>
CC(C)(C)c1ccc(N2CSC(=S)N(c3ccc(C(C)(C)C)cc3)C2)cc1

>  <Category label>
NO

$$$$
>  <Compound>
COc1cc2cc3c(nc2cc1OC)CCN3Cc1ccc(NC(=O)c2ccc(Cl)c(C(F)(F)F)c2)cc1

>  <Category label>
NO

$$$$
>  <Compound>
COc1ccccc1CNCCCN1C(=O)c2ccc3c4c(ccc(c24)C1=O)C(=O)N(CCCN)C3=O

>  <Category label>
YES

$$$$
